tested on: Streptococcus pneumoniae; experiment: Antibacterial activity against Streptococcus pneumoniae harboring erm(B) gene after overnight incubation by agar dilution method; type: functional
Reported Endpoint: MIC90 (µg/mL)
Write the number in µg/mL without appending the unit.

Request: I would be grateful if you could share the reported MIC90 for COc1c(N2C[C@@H]3CCCN[C@@H]3C2)c(F)cc2c(=O)c(C(=O)O)cn(C3CC3)c12 [MOXIFLOXACIN] .
Result: 0.5

Request: I would be grateful if you could share the reported MIC90 for CC[C@H]1OC(=O)[C@@](C)(F)C(=O)[C@H](C)[C@@H](O[C@@H]2O[C@H](C)C[C@H](N(C)C)[C@H]2O)[C@](C)(OC)C[C@@H](C)C(=O)[C@H](C)[C@H]2N(CCCCn3cc(-c4cccc(N)c4)nn3)C(=O)O[C@]12C [SOLITHROMYCIN] .
Result: 0.5

Request: I would be grateful if you could share the reported MIC90 for C[C@H]1COc2c(N3CCN(C)CC3)c(F)cc3c(=O)c(C(=O)O)cn1c23.C[C@H]1COc2c(N3CCN(C)CC3)c(F)cc3c(=O)c(C(=O)O)cn1c23.O [LEVOFLOXACIN] .
Result: 2

Request: I would be grateful if you could share the reported MIC90 for CC[C@H]1OC(=O)[C@H](C)C(=O)[C@H](C)[C@@H](O[C@@H]2O[C@H](C)C[C@H](N(C)C)[C@H]2O)[C@](C)(OC)C[C@@H](C)C(=O)[C@H](C)[C@H]2N(CCCCn3cnc(-c4cccnc4)c3)C(=O)O[C@]12C [TELITHROMYCIN] .
Result: 1

Request: I would be grateful if you could share the reported MIC90 for CC1(C)S[C@@H]2[C@H](NC(=O)Cc3ccccc3)C(=O)N2[C@H]1C(=O)O [PENICILLIN G] .
Result: 4

---

system: Streptococcus pyogenes; assay: Antibacterial activity against Streptococcus pyogenes harboring erm(A) gene after overnight incubation by agar dilution method; type: functional
Reported Endpoint: MIC50 (µg/mL)
Write the number in µg/mL without appending the unit.

Request: Form field - read-out: MIC50; system: Streptococcus pyogenes; submitted item: CC[C@H]1OC(=O)[C@H](C)C(=O)[C@H](C)[C@@H](O[C@@H]2O[C@H](C)C[C@H](N(C)C)[C@H]2O)[C@](C)(OC)C[C@@H](C)C(=O)[C@H](C)[C@H]2N(CCCCn3cnc(-c4cccnc4)c3)C(=O)O[C@]12C
Result: 0.06

Request: Form field - read-out: MIC50; system: Streptococcus pyogenes; submitted item: C[C@H]1COc2c(N3CCN(C)CC3)c(F)cc3c(=O)c(C(=O)O)cn1c23.C[C@H]1COc2c(N3CCN(C)CC3)c(F)cc3c(=O)c(C(=O)O)cn1c23.O
Result: 0.5

Request: Form field - read-out: MIC50; system: Streptococcus pyogenes; submitted item: CC[C@H]1OC(=O)[C@H](C)[C@@H](O[C@H]2C[C@@](C)(OC)[C@@H](O)[C@H](C)O2)[C@H](C)[C@@H](O[C@@H]2O[C@H](C)C[C@H](N(C)C)[C@H]2O)[C@](C)(OC)C[C@@H](C)C(=O)[C@H](C)[C@@H](O)[C@]1(C)O
Result: 2

Request: Form field - read-out: MIC50; system: Streptococcus pyogenes; submitted item: CC[C@H]1OC(=O)[C@H](C)[C@@H](O[C@H]2C[C@@](C)(OC)[C@@H](O)[C@H](C)O2)[C@H](C)[C@@H](O[C@@H]2O[C@H](C)C[C@H](N(C)C)[C@H]2O)[C@](C)(O)C[C@@H](C)C(=O)[C@H](C)[C@@H](O)[C@]1(C)O
Result: 4
